Measured pEC50, listed per entry for reference.
# target: hGPR120 (Homo sapiens, UniProt Q5NUL3)
# Sequence (Q5NUL3 whole entry): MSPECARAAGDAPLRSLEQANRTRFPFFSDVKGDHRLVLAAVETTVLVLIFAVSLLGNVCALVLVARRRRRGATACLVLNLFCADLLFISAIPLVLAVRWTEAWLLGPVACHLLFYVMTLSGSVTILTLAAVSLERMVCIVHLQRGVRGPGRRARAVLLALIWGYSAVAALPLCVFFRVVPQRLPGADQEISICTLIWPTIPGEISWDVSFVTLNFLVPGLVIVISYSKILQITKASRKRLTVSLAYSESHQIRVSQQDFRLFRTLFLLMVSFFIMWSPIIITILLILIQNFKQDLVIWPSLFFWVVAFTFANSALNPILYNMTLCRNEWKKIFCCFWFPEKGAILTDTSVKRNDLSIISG
# procedure summary: Measurement of Activity of GPR120 Agonist (Cell-Based Assay), Calcium 5 dye fluorescence
# study conditions: CHO-K1 cells expressing Ga16 and hGPR120
pEC50: −log10 of the molar value.

CC(C)COc1cncc(-c2cc(F)c(N3CCC(CC(=O)O)CC3)c(F)c2)n1 = > 6.70
CCN(CCCCC(=O)O)c1c(F)cc(-c2cccnc2OC2CCCC2)cc1F = 5.70 to 6.70
Cc1cc(OC2CCC2)nc(-c2cc(F)c(OCCCC(=O)O)c(Cl)c2)c1 = > 6.70
O=C(O)CCC1CCc2cc(-c3cccnc3OCC3CC3)ccc2O1 (stereo not drawn) = 5.70 to 6.70
O=C(O)CCCCNc1c(F)cc(-c2cccnc2OC2CCCC2)cc1F = > 6.70
O=C(O)CCCCc1c(F)cc(-c2cccc(OC3CCCC3)n2)cc1F = > 6.70

Query: Tell me measured pEC50 for Cc1cc(OC2CCC2)nc(-c2cc(F)c(OCC3CC3C(=O)O)c(Cl)c2)n1 (stereo not drawn) please.
Reply: 5.70 to 6.70

Query: Tell me measured pEC50 for O=C(O)CCCCc1ccc(-c2cccnc2SC2CCCC2)cc1F please.
Reply: > 6.70

Query: Tell me measured pEC50 for CC(C)(C)Oc1cccc(-c2cc(F)c(N3CCC(CC(=O)O)CC3)c(F)c2)n1 please.
Reply: 5.70 to 6.70

* * *

Measured EC50, listed per entry for reference.
# target: hGPR120 (Homo sapiens, UniProt Q5NUL3)
# procedure summary: Measurement of Activity of GPR120 Agonist (Cell-Based Assay), Calcium 5 dye fluorescence
# study conditions: CHO-K1 cells expressing Ga16 and hGPR120

Here is how some compounds turned out for EC50.
O=C(O)C1CC1COc1c(F)cc(-c2cccc(OC3CCC3)n2)cc1F (centres unmarked) = < 0.2 µM
Cc1cc(OCC(C)C)nc(-c2cc(F)c(N3CCC(CC(=O)O)CC3)c(F)c2)n1 = 0.2 to 2 µM
CC(C)Sc1cccc(-c2ccc3cc(CCC(=O)O)ccc3c2)n1 = 0.2 to 2 µM
O=C(O)CC1CCN(c2c(F)cc(-c3cc(F)cc(OC4CCC4)c3)cc2F)CC1 = 0.2 to 2 µM
CCCSc1cccc(-c2cc(F)c(N3CCC(CC(=O)O)CC3)c(F)c2)n1 = 0.2 to 2 µM

Query: Tell me measured EC50 for O=C(O)CC1CN(c2c(F)cc(-c3cccc(OC4CCC4)n3)cc2F)C1 please.
Reply: < 0.2 µM

Query: Tell me measured EC50 for O=C(O)CC1CCN(c2c(F)cc(-c3cccc(OC4CCC4)n3)cc2Cl)CC1 please.
Reply: 0.2 to 2 µM

* * *

Measured EC50, listed per entry for reference.
# target: hGPR120 (Homo sapiens)
# procedure summary: Measurement of Activity of GPR120 Agonist (Cell-Based Assay), Calcium 5 dye fluorescence
# study conditions: CHO-K1 cells expressing Ga16 and hGPR120
# Experimental: CHO-K1 cells expressing Ga16 and hGPR120 were dispensed into each well of a 96-well plate (3×10^4 cells/100 μl/well) and then incubated in 5% CO2, 37° C. incubator for 18 hours. […] Each well was treated with 50 μl of the agonist compounds using Plexstation II, and then fluorescence was measured at Ex 485 nm and Em 525 nm. Fluorescence increased by the serially diluted GPR120 agonists is calculated as a relative percent (%) value based on the fluorescence represented by the treatment of 1% DMSO only. […]

Here is how some molecules turned out for EC50.
CN(CCCC(=O)O)c1c(F)cc(-c2cc(Cl)cc3c2OC(C)(C)C3)cc1F = < 200 nM
O=C(O)CCCOc1c(F)cc(-c2cccc3c2OC2(CCCC2)C3)cc1F = < 200 nM
O=C(O)CC1CCN(c2c(F)cc(-c3cccc(C4CCC4)n3)cc2F)CC1 = 200 to 2000 nM

Query: Tell me measured EC50 for O=C(O)CCC1CC1c1c(F)cc(-c2cccnc2OC2CCCC2)cc1F (centres unmarked) please.
Reply: < 200 nM

Query: Tell me measured EC50 for O=C(O)C[C@@H]1CCN(c2c(F)cc(-c3cccc(OCC4CC4)n3)cc2F)C1 please.
Reply: < 200 nM

Query: Tell me measured EC50 for O=C(O)CCCC1(c2c(F)cc(-c3cccnc3OC3CCCC3)cc2F)CC1 please.
Reply: < 200 nM

Query: Tell me measured EC50 for Cc1cc(OC2CCC2)nc(-c2cc(F)c(N3CCC(CC(=O)O)CC3)c(F)c2)c1 please.
Reply: 200 to 2000 nM

Query: Tell me measured EC50 for CCOc1ccnc(-c2cc(F)c(N3CCC(CC(=O)O)C3)c(F)c2)n1 (centres unmarked) please.
Reply: < 200 nM
